TARGET ENTITY: mTOR (Homo sapiens)
ASSAY PROTOCOL: mTOR enzyme assay (DELFIA, purified FLAG-TOR, His6-S6K substrate)
Format: biochemical
Design: FLAG
CONDITION CONTEXT: 100 μM ATP, 2 hours
So basically: is IC50 under 3 nM? Then criterion met. Not under? Then criterion not met.

C[C@@H]1COCCN1c1cc(N2C3CCC2COC3)nc(-c2ccc(NC(=O)Nc3ccc(C(=O)N(C)C)cc3)cc2)n1 criterion met
O=C(Nc1ccc(-c2nc(N3C4CCC3COC4)c(Cl)c(N3C4CCC3COC4)n2)cc1)Nc1cccnc1 criterion met
CC(C)Nc1cc(N2C3COCC2COC3)nc(-c2ccc(NC(=O)Nc3ccc(N4CCN(C)CC4)cc3)cc2)n1 criterion not met
CN1CCN(c2ccc(NC(=O)Nc3ccc(-c4nc(N5C6CCC5COC6)c(Cl)c(N5C6CCC5COC6)n4)cc3)cc2)CC1 criterion met
CS(=O)(=O)Cc1cc(N2CC3CCC(C2)O3)nc(-c2ccc(NC(=O)Nc3cccnc3)cc2)n1 criterion met

Prompt: Does the reported IC50 of O=C(Nc1ccc(-c2nc(N3CC4CCC(C3)O4)cc(C(F)(F)F)n2)cc1)OCCO stay below 3 nM?
Completion: criterion not met

Prompt: Does the reported IC50 of CC(C)Nc1cc(N2C3COCC2COC3)nc(-c2ccc(NC(=O)Nc3ccc(OCCN(C)C)cc3)cc2)n1 stay below 3 nM?
Completion: criterion not met

Prompt: Does the reported IC50 of O=C(Nc1ccncc1)Nc1ccc(-c2nc(C3CCOCC3)cc(N3C4CCC3COC4)n2)cc1 stay below 3 nM?
Completion: criterion met

Prompt: Does the reported IC50 of CNC(=O)Nc1ccc(-c2nccc(N3CC4CCC(C3)O4)n2)cc1 stay below 3 nM?
Completion: criterion not met

Prompt: Does the reported IC50 of O=C(Nc1ccncc1)Nc1ccc(-c2nc(-c3ccccc3)cc(N3CC4CCC(C3)O4)n2)cc1 stay below 3 nM?
Completion: criterion not met

* * *

TARGET ENTITY: PI3K-alpha (Homo sapiens)
Sequence (P42336 whole entry, species assumed): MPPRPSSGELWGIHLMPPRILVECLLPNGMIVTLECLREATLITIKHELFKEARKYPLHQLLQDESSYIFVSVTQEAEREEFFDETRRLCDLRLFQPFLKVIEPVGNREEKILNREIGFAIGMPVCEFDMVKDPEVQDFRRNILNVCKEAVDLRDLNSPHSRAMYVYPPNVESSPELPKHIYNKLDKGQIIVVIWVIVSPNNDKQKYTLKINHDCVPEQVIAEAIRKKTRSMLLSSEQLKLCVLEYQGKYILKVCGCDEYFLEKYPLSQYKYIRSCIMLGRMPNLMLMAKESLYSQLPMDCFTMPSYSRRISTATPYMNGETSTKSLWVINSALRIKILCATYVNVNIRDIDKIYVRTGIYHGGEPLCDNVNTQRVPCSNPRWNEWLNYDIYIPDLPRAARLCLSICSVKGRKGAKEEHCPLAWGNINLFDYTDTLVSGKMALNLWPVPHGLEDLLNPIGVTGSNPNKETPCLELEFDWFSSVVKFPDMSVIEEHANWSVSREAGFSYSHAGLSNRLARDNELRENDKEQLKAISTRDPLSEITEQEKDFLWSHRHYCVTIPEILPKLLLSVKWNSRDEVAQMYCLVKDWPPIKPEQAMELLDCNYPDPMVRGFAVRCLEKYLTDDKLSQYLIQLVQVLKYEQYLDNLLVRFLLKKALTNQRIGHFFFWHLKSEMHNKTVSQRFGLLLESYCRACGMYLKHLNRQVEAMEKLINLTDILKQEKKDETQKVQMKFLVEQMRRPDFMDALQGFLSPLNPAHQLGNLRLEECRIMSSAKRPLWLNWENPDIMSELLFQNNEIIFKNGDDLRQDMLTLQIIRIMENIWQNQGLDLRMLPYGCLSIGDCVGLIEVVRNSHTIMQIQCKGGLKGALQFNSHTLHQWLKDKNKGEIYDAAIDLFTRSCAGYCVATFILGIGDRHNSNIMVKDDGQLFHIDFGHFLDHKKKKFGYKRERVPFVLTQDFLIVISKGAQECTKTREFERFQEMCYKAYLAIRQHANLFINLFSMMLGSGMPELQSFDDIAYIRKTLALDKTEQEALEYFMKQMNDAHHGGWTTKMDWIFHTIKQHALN
Sequence (P27986 whole entry partner, species assumed): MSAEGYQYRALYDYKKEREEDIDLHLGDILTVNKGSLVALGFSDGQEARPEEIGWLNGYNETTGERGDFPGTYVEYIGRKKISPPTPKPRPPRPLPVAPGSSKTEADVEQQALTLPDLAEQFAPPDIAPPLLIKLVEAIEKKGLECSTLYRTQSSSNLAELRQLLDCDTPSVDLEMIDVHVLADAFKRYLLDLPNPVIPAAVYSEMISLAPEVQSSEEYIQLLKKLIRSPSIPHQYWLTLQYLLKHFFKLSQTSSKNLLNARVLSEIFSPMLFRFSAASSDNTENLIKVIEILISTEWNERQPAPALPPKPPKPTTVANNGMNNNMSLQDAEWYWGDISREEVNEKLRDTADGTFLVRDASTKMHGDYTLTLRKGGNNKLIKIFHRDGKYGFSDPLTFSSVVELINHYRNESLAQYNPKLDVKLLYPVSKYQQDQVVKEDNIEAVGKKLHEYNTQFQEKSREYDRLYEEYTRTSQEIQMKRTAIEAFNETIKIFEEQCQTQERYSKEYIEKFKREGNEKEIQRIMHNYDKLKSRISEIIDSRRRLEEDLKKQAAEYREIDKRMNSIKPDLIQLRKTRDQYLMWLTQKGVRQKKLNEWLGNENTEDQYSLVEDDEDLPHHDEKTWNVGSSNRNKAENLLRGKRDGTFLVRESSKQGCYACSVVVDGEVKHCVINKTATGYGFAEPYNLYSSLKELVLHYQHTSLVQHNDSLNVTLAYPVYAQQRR
ASSAY PROTOCOL: PI3K-alpha fluorescence polarization assay
Format: biochemical
CONDITION CONTEXT: 20 μM PIP2, 25 μM ATP; read-out: PI3Kα IC50
pIC50: −log10 of the molar value.
Assign class by pIC50: not lower than 6 means Satisfied; lower than 6 means Not satisfied.

Prompt: Would you say CN(C)CCOc1ccc(NC(=O)Nc2ccc(-c3nc(N4C5CCC4COC5)cc(N4C[C@H]5C[C@@H]4CO5)n3)cc2)cc1 shows pIC50 at minimum 6?
Completion: Not satisfied

* * *

Tested on: LNCap
ASSAY PROTOCOL: In vitro cell growth assay (MTS), LNCap
Type: cell-based
CONDITION CONTEXT: human prostate line, three days after drug treatment
REPORTED PROPERTY: pIC50
Scale for pIC50: -log10 of concentration given in mol/L; no unit attached.

Sure, the documented pIC50 for NC(=O)c1ccc(NC(=O)Nc2ccc(-c3cc(N4CC5CCC(C4)O5)nc(-c4ccc(NC(=O)Nc5ccc(C(N)=O)cc5)cc4)n3)cc2)cc1 is 7.39

* * *

TARGET ENTITY: mTOR (Homo sapiens, UniProt P42345)
Sequence (P42345 1360-2549 limits assumed): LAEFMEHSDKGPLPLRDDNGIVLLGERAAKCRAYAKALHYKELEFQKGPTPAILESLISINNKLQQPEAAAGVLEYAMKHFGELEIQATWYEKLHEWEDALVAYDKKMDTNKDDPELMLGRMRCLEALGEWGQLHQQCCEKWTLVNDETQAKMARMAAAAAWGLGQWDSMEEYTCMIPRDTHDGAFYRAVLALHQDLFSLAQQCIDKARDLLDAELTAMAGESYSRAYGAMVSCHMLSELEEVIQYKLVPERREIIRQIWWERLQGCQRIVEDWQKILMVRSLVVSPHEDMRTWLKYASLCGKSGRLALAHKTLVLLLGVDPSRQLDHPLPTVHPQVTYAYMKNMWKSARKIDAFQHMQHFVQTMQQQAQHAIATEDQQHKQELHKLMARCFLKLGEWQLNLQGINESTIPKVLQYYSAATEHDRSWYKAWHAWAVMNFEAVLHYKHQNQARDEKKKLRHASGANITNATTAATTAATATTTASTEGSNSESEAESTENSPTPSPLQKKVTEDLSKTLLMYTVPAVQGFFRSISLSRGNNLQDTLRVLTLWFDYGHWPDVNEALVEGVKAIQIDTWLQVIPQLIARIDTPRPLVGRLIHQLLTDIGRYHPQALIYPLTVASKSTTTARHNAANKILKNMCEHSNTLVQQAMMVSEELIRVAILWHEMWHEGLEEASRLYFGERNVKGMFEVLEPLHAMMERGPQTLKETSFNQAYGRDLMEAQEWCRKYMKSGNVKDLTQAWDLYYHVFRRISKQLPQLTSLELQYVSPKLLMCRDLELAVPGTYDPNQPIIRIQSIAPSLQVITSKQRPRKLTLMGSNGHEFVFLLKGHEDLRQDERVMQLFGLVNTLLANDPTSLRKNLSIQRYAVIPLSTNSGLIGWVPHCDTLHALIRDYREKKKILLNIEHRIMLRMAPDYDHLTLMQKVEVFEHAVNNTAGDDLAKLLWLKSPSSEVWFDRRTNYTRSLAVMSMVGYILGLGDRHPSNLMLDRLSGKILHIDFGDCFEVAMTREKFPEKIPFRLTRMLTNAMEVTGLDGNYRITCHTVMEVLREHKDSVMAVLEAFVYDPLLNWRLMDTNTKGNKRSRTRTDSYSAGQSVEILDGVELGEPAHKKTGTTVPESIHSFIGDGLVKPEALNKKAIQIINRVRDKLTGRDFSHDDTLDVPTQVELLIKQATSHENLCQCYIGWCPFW
ASSAY PROTOCOL: mTOR enzyme assay (DELFIA, purified FLAG-TOR, His6-S6K substrate)
Type: biochemical
Set-up: FLAG
CONDITION CONTEXT: 100 μM ATP, 2 hours
REPORTED PROPERTY: log10 IC50 (log10 of the value in nM)
Each number you see is log10 of IC50, and the unit inside the log is nM.

Reference set, count: 3
CN(C)CCOc1ccc(NC(=O)Nc2ccc(-c3nc(NCCS(C)(=O)=O)cc(N4C5CCC4COC5)n3)cc2)cc1 1.41
CN1CCN(c2ccc(NC(=O)Nc3ccc(-c4nc(C5CCOCC5)cc(N5C6CCC5COC6)n4)cc3)cc2)CC1 -0.07
CN1CCN(c2ccc(NC(=O)Nc3ccc(-c4nc(-c5ccccc5)cc(N5CC6CCC(C5)O6)n4)cc3)cc2)CC1 1.24

Sure, the documented log10 IC50 for CNCc1ccc(NC(=O)Nc2ccc(-c3nc(CS(C)(=O)=O)cc(N4CC5CCC(C4)O5)n3)cc2)cc1 is 0.62

Sure, the documented log10 IC50 for CC(C)Nc1cc(N2CC3CCC(C2)O3)nc(-c2ccc(NC(=O)NC3CC3)cc2)n1 is 0.91

Sure, the documented log10 IC50 for CN1CCN(c2ccc(NC(=O)Nc3ccc(-c4nc(N5CC6CCC(C5)O6)cc(C(F)(F)F)n4)cc3)cc2)CC1 is 1.04

Sure, the documented log10 IC50 for O=C(Nc1ccncc1)Nc1ccc(-c2cc(N3CC4CCC(C3)O4)nc(-c3ccc(NC(=O)Nc4ccncc4)cc3)n2)cc1 is 0.51

Sure, the documented log10 IC50 for O=C(Nc1ccncc1)Nc1ccc(-c2nccc(N3CC4CCC(C3)O4)n2)cc1 is 1.16
